Data provenance: the Kinase Knowledgebase extract (Sharma et al. 2016)

# tgt: EGFR (UniProt P00533)
# Sequence (P00533 whole entry, looked up): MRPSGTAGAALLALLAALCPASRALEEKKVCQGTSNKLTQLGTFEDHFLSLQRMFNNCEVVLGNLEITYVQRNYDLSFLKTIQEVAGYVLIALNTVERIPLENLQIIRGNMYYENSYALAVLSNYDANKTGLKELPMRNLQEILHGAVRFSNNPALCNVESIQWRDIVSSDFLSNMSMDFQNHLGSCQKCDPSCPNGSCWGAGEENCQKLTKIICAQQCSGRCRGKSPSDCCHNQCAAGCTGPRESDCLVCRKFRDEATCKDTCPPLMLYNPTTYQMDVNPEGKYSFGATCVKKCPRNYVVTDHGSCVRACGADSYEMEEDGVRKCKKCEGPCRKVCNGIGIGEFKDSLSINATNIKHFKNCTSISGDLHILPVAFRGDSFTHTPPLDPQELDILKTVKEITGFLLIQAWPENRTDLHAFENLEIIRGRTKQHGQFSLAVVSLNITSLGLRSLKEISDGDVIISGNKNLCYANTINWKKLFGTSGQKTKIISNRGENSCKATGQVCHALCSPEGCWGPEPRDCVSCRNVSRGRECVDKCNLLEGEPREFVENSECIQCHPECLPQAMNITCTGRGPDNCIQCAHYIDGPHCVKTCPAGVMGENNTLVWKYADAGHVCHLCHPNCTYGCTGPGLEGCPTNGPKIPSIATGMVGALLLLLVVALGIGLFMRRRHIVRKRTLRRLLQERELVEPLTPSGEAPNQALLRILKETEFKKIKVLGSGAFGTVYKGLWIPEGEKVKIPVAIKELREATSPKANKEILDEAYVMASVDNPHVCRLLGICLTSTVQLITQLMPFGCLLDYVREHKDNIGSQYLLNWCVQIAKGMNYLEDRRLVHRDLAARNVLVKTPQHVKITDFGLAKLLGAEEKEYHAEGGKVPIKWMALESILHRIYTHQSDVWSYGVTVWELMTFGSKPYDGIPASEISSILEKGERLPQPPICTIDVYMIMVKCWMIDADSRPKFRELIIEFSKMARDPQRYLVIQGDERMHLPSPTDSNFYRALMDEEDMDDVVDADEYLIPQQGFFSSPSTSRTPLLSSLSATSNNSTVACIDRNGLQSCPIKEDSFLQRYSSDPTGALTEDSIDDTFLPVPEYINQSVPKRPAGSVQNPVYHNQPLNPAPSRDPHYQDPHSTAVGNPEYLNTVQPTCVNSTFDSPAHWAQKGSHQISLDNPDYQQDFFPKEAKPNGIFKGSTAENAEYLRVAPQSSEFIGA
metricName: IC50

Would you please look over these solved cases?
## Input Which IC50 value is on record for `C=CCNC(=O)c1ccc(-c2cc(Nc3ncnc(Nc4cc(OC)c(OC)c(OC)c4)n3)[nH]n2)cc1` ?
## Output > 4.5 µg/mL

## Input Which IC50 value is on record for `COc1cc(Nc2ncnc(-n3c(NCc4ncc[nH]4)nc4ccccc43)n2)cc(OC)c1OC` ?
## Output > 4.5 µg/mL

## Input Which IC50 value is on record for `COCCOc1cc(Nc2ncnc(Nc3ccc(C)c(O)c3)n2)ccc1OC` ?
## Output < 0.4 µg/mL

## Input Which IC50 value is on record for `COc1cc(Nc2ncnc(-n3ccc4cc(OCc5ccccc5)ccc43)n2)cc(OC)c1OC` ?
## Output > 4.5 µg/mL

## Input Which IC50 value is on record for `COc1cccc(Nc2nc3ccccc3n2-c2ncnc(Nc3cc(OC)c(OC)c(OC)c3)n2)c1` ?
## Output > 4.5 µg/mL

## Input Which IC50 value is on record for `COc1cc(Nc2ncnc(Nc3ccc(NC(C)=O)c(C(F)(F)F)c3)n2)cc(OC)c1OC` ?
## Output 2.4 to 3.5 µg/mL

Further cases:
## Input Which IC50 value is on record for `COc1ncnc(Nc2cc(OC)c(OC)c(OC)c2)n1` ?
## Output > 4.5 µg/mL

## Input Which IC50 value is on record for `COc1cc(Nc2ncnc(-n3c(NC(C)(C)c4ccccc4)nc4ccccc43)n2)cc(OC)c1OC` ?
## Output > 4.5 µg/mL

## Input Which IC50 value is on record for `COc1cc(Nc2ncnc(-n3c(NCc4ccccn4)nc4ccccc43)n2)cc(OCCN2CCOCC2)c1OC` ?
## Output > 4.5 µg/mL

## Input Which IC50 value is on record for `c1csc(-c2ncnc(Nc3ccc4c(c3)OCO4)n2)c1` ?
## Output > 4.5 µg/mL

## Input Which IC50 value is on record for `COC(=O)c1cccc(Nc2ncnc(-n3c(NCc4ccccc4)nc4ccccc43)n2)c1` ?
## Output 0.4 to 2.4 µg/mL

## Input Which IC50 value is on record for `Nc1ncnc(Nc2cc(Cl)ccc2O)n1` ?
## Output > 4.5 µg/mL

## Input Which IC50 value is on record for `COc1cc(Nc2ncnc(-n3c(N)nc4ccccc43)n2)cc(OC)c1OCCN1CCOCC1` ?
## Output > 4.5 µg/mL

## Input Which IC50 value is on record for `COc1cc(Nc2ncnc(-c3cccnc3Nc3ccc(Oc4ccccc4)cc3)n2)cc(OC)c1OC` ?
## Output > 4.5 µg/mL

## Input Which IC50 value is on record for `COc1cc(OC)cc(-c2nnc(Nc3ncnc(Nc4cc(OC)c(OC)c(OC)c4)n3)[nH]2)c1` ?
## Output > 4.5 µg/mL

## Input Which IC50 value is on record for `COc1ccc(Nc2ncnc(-n3c(N)nc4ccccc43)n2)cc1OCCN1CCOCC1` ?
## Output > 4.5 µg/mL

## Input Which IC50 value is on record for `Cc1cccc(Nc2ncnc(Nc3cccc(Br)c3)n2)c1` ?
## Output < 0.4 µg/mL

## Input Which IC50 value is on record for `CN(c1cccc(Cl)c1)c1ncnc(Nc2cccc(CC(=O)O)c2)n1` ?
## Output < 0.4 µg/mL

## Input Which IC50 value is on record for `COc1cc(Nc2ncnc(N3CCc4cc([N+](=O)[O-])ccc43)n2)cc(OC)c1OC` ?
## Output > 4.5 µg/mL

## Input Which IC50 value is on record for `O=c1[nH]c2ccccc2n1-c1ncnc(Nc2ccc(-c3cnco3)cc2)n1` ?
## Output > 4.5 µg/mL
